ASSAY INFO: Conversion of prodrug to parent in intestine homogenate
Type: in vitro ADME
EXPERIMENTAL SETUP: prodrug 1 μM, intestine S9 1 mg protein/mL, 37° C., pH 7.4, 2 h
ENDPOINT NAME: Prodrug concentration at 2 h (µM)
Give the quantity in µM, number only.

Find the recorded Prodrug concentration at 2 h belonging to `Cc1cc(Nc2cc(C(F)F)ccn2)nc(-c2ccc([C@](C)(O)[C@H]3CC[C@H](C(=O)OCOC(=O)OCCOCCOCCOCCOP(=O)(O)O)CC3)nc2)c1` and report it.
0

----------
ASSAY SYSTEM: recombinant human GST-Syk (Homo sapiens, UniProt P43405)
Construct: purchased Carna Biosciences 08-176
ASSAY INFO: Homogeneous Time-Resolved Fluorescence (HTRF) assay for the recombinant human Syk enzyme
Assay type: biochemical
EXPERIMENTAL SETUP: recombinant human GST-Syk 5 pM, ATP 25 μM, read-out: IC50
pIC50: −log10 of the molar value.
ENDPOINT NAME: pIC50

Cc1cc(Nc2cc(C(F)F)ccn2)nc(-c2ccc([C@](C)(O)[C@H]3CC[C@H](C(=O)OCOP(=O)(O)O)CC3)nc2)c1 [Example 10-1]: > 9.30
CCOCCOCCOC(=O)OC(OC(=O)[C@H]1CC[C@H]([C@@](C)(O)c2ccc(-c3cc(C)cc(Nc4cc(C(F)F)ccn4)n3)cn2)CC1)C(C)C (stereo partly drawn) [Example 2-17]: > 9.30

Find the recorded pIC50 belonging to CSCCOC(=O)OCOC(=O)[C@H]1CC[C@H]([C@@](C)(O)c2ccc(-c3cc(C)cc(Nc4cc(C(F)F)ccn4)n3)cn2)CC1 [Example 2-10] and report it.
> 9.30

----------
ASSAY SYSTEM: recombinant human GST-Syk (Homo sapiens)
Construct: purchased Carna Biosciences 08-176
ASSAY INFO: Homogeneous Time-Resolved Fluorescence (HTRF) assay for the recombinant human Syk enzyme
Type: biochemical
EXPERIMENTAL SETUP: recombinant human GST-Syk 5 pM, ATP 25 μM, read-out: IC50
Protocol: Syk inhibition of the compounds of Formula (I) may be determined using the following assay protocol: Homogeneous Time-Resolved Fluorescence (HTRF) Assay for the Recombinant Human Syk Enzyme: A recombinant GST-hSyk fusion protein was used to measure potency of compounds to inhibit human Syk activity. […] Final volume of the reaction was 10 μL. […] The resulting HTRF signal was measured after 30 minutes on a EnVision (Perkin-Elmer) reader using a time-resolved fluorescence protocol.
Overview of reported IC50 across a group of compounds:
Give the quantity in nM, number only.

Cc1cc(Nc2cc(C(F)F)ccn2)nc(-c2ccc([C@](C)(O)[C@H]3CC[C@H](C(=O)OCC[S+](C)[O-])CC3)nc2)c1 (some centres unmarked) [Example 7-3]: 3.3
CC(=O)N[C@@H](CC(C)C)C(=O)OCOC(=O)[C@H]1CC[C@H]([C@@](C)(O)c2ccc(-c3cc(C)cc(Nc4cc(C(F)F)ccn4)n3)cn2)CC1 [Example 3-7]: 12.7
Cc1cc(Nc2cc(C(F)F)ccn2)nc(-c2ccc([C@](C)(O)[C@H]3CC[C@H](C(=O)OC(C)OC(=O)c4cnn(C)c4)CC3)nc2)c1 (some centres unmarked) [Example 3-2]: 1.9
Cc1cc(Nc2cc(C(F)F)ccn2)nc(-c2ccc([C@](C)(O)[C@H]3CC[C@H](C(=O)OC[N+](C)(C)C(C)C)CC3)nc2)c1 [Example 5-2]: 0.8

Turning now to a further compound:
Find the recorded IC50 belonging to Cc1cc(Nc2cc(C(F)F)ccn2)nc(-c2ccc([C@](C)(O)[C@H]3CC[C@H](C(=O)OCOC(=O)OCCCS(C)(=O)=O)CC3)nc2)c1 [Example 7-2] and report it.
7.5
